Ref: patent US20220267288A1

- Tested on: H9c2 cells
- test.name: Mitochondrial membrane potential (Δψm) dissipation, TMRM dye
- Type: cell-based
- conditions: Rattus norvegicus; H9c2 cells, TMRM dye
quantity.kind: IC50 (nM)
Reply with just the number (in nM).

Q: Entry CCCCc1oc2ccc(NS(C)(=O)=O)cc2c1C(=O)c1ccc(OCCCN(CCCC)CCCC)cc1.Cl [Dronedarone] needs its IC50 filled in; supply it.
A: 500

---

Known half-life at 1 μM of a selection of compounds
- target.or.test.system: T1, CYP3A5 (Homo sapiens, UniProt P20815)
- T1 construct: purchased BD Gentest (Woburn, Mass.)
- T1 sequence (P20815 whole entry): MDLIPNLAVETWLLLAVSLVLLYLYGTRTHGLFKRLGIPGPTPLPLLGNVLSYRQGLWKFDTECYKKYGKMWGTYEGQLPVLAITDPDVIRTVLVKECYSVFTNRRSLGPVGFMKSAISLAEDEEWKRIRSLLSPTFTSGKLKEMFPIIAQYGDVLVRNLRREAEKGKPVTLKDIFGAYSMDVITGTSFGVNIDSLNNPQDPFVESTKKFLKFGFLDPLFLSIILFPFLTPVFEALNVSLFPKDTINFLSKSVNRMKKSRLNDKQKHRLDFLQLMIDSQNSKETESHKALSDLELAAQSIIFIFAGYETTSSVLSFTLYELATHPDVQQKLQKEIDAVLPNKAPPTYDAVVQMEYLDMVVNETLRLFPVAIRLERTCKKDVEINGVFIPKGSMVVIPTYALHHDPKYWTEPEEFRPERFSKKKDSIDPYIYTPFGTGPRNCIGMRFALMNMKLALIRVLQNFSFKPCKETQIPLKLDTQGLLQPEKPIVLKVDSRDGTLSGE
- test.name: Metabolic stability (substrate depletion) with CYP3A5
- Type: in vitro ADME
- conditions: human, CYP3A5 enzyme, pH 7.4; 1 μM substrate, CYP3A5 10 pmol/mL; read-out: T1/2 by CYP3A5
- Description: The metabolic stability experiments were performed to derive intrinsic clearance (CLint) values via the substrate depletion method. […] NADPH A was subsequently added to initiate the reaction. […] The mean of triplicate peak area ratios for each compound was normalized to that of the same compound at the 0 min time point to obtain the percentage of substrate remaining at each time point. […] CLint was then calculated based on equation 3: […]
Include the unit after the number when you answer.

smiles | observed.value
CCCCc1oc2ccc(NS(C)(=O)=O)cc2c1C(=O)c1ccc(OCCCN(CCCC)CCCC)cc1.Cl | 17.4 min

Now look at this one.
Q: Tell me half-life at 1 μM of `Cl.[2H]c1c(NS(C)(=O)=O)c([2H])c2c(C(=O)c3ccc(OCCCN(CCCC)CCCC)cc3)c(CCCC)oc2c1[2H]` when tested on T1, CYP3A5 (Homo sapiens, UniProt P20815).
A: 25.1 min

---

Listed below: KI (inactivation) values for each entry.
- target.or.test.system: CYP3A4 (Homo sapiens)
- Construct: purchased BD Gentest (Woburn, Mass.)
- Sequence (P08684 whole entry): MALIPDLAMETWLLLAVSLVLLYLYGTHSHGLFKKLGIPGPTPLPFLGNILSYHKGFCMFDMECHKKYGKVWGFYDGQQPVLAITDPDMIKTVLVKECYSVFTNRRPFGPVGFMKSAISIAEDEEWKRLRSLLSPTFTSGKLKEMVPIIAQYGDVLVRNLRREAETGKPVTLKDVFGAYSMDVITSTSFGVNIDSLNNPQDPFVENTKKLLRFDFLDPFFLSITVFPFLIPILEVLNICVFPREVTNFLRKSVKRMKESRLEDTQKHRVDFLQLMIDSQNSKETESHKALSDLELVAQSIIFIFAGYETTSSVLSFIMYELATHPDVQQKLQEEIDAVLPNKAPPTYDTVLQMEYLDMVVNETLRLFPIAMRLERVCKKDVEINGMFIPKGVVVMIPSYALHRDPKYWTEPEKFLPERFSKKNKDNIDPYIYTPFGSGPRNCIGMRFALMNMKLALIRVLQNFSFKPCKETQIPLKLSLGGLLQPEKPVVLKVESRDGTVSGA
- test.name: Time- and concentration-dependent inactivation of CYP3A4, rivaroxaban probe
- Assay type: in vitro ADME
- conditions: human, recombinant CYP3A4, pH 7.4, probe rivaroxaban (50 μM); in vitro data obtained; rivaroxaban probe; read-out: Mechanism-based inactivation KI CYP3A4
Report only the number, with the unit µM understood.

smiles | quantity.kind | units.label | observed.value
Cl.[2H]c1c(NS(C)(=O)=O)c([2H])c2c(C(=O)c3ccc(OCCCN(CCCC)CCCC)cc3)c(CCCC)oc2c1[2H] | KI (inactivation) | µM | 3.19

Shifting focus to the compound that follows.
Q: Tell us which KI (inactivation) value is on record for `CCCCc1oc2ccc(NS(C)(=O)=O)cc2c1C(=O)c1ccc(OCCCN(CCCC)CCCC)cc1.Cl`
A: 5.3

---

- target.or.test.system: UniProt:P51589
- Sequence (P51589 whole entry): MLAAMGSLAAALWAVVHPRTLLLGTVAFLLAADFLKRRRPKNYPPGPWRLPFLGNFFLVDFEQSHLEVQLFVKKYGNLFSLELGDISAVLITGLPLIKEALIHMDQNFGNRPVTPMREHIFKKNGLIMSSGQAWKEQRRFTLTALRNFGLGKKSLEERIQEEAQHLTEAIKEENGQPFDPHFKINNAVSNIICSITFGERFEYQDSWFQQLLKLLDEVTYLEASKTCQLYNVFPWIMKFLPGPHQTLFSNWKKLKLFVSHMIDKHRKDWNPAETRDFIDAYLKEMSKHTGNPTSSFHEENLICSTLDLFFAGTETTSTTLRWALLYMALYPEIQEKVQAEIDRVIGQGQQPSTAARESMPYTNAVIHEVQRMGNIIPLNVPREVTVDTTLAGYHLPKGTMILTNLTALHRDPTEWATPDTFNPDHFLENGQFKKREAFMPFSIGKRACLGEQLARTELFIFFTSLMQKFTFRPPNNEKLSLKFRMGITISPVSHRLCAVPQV
- test.name: In-vitro metabolic half-life with recombinant CYP2J2
- Type: in vitro ADME
- conditions: recombinant CYP2J2, NADPH, 1 μM drug, read-out: Metabolic half-life (T1/2)
quantity.kind: half-life at 1 μM (min)
# number only, unit min dropped from output

compound | half-life at 1 μM, min
Cl.[2H]c1c(NS(C)(=O)=O)c([2H])c2c(C(=O)c3ccc(OCCCN(CCCC)CCCC)cc3)c(CCCC)oc2c1[2H] [Poyendarone] | 5.32

Let us examine a further case.
Q: Please list half-life at 1 μM recorded for the compound CCCCc1oc2ccc(NS(C)(=O)=O)cc2c1C(=O)c1ccc(OCCCN(CCCC)CCCC)cc1.Cl [Dronedarone]
A: 4.95
